Reference for the values: the supplement of paper PMC8371130

Here the recorded relative cell viability is given for each entry.
system: HL-1; assay: relative cell viability (CellTiter-Glo) vs DMSO control (% of DMSO control); higher = more viable cells; conditions: oxygen condition: normoxia 72 h; 5000 nM
Structures can show the parent of a compound that is named as a salt.
Give your answer as a number; write no unit.

Observe how each entry below is paired with its result.
- Cc1cccc(CN2CCN(C(c3ccccc3)c3ccc(Cl)cc3)CC2)c1 (stereo not drawn) [Meclizine 2HCl]: 103
- N[C@H](Cc1ccccc1)C(=O)O [D-Phenylalanine]: 116
- COc1cc2/c(=N/c3ccc(Br)cc3F)nc[nH]c2cc1OCC1CCN(C)CC1 [Vandetanib]: 102
- CCCCCCNC(=O)n1cc(F)c(=O)[nH]c1=O [Carmofur]: 15.1
- Cc1c(-c2ccc(O)cc2)n(Cc2ccc(OCCN3CCCCCC3)cc2)c2ccc(O)cc12 [Bazedoxifene HCl]: 45.6

The compound CC(C)(OCc1nn(Cc2ccccc2)c2ccccc12)C(=O)O [Bindarit] showed relative cell viability equal to 3.69

The compound COc1cc(C(C)=O)ccc1OCCCN1CCC(c2noc3cc(F)ccc23)CC1 [Iloperidone] showed relative cell viability equal to 109

Recorded result, O=C[C@H](O)[C@@H](O)[C@H](O)CO [Xylose] , relative cell viability: 111

----------
tested on: HL-1; test: relative cell viability (CellTiter-Glo) vs DMSO control (% of DMSO control); higher = more viable cells; conditions: oxygen condition: normoxia 72 h; 40 nM
measurement type: relative cell viability
Number only, please.

// below: answered compounds
- C=C1CC[C@H](O)C/C1=C/C=C1\CCC[C@]2(C)[C@@H]([C@H](C)CCCC(C)(C)O)CC[C@@H]12 [Calcifediol]: 103
- CCCS(=O)(=O)Nc1ccc(F)c(C(=O)c2c[nH]c3ncc(-c4ccc(Cl)cc4)cc23)c1F [Vemurafenib]: 104

relative cell viability reported for this compound C[C@]12CC[C@@H]3c4ccc(O)cc4C[C@@H](CCCCCCCCC[S+]([O-])CCCC(F)(F)C(F)(F)F)[C@H]3[C@@H]1CC[C@@H]2O (stereo partly drawn) [Fulvestrant] : 111

----------
tested on: HL-1; test: relative cell viability (CellTiter-Glo) vs DMSO control (% of DMSO control); higher = more viable cells; settings: oxygen condition: normoxia 72 h; 200 nM
Counter-ions that a name gives are not always drawn.
measurement type: relative cell viability
Reply: number alone, nothing else.

Answered cases to consult:
- CCCCOc1cc(C(=O)OCCN(CC)CC)ccc1N [Oxybuprocaine HCl]: 102
- COc1cc2c(cc1OC)C(=O)C(CC1CCN(Cc3ccccc3)CC1)C2 (configuration not stated) [Donepezil HCl]: 102
- CC(C)OC(=O)C(C)(C)Oc1ccc(C(=O)c2ccc(Cl)cc2)cc1 [Fenofibrate]: 97.9
- Fc1ccc(C(c2ccc(F)cc2)N2CCN(C/C=C/c3ccccc3)CC2)cc1 [Flunarizine 2HCl]: 99.7

The measured relative cell viability associated with COC(=O)C1=C(C)NC(C)=C(C(=O)OCCN(C)Cc2ccccc2)C1c1cccc([N+](=O)[O-])c1 (configuration not stated) [Nicardipine HCl] reads 106

Per the records, this molecule ( NCCc1c[nH]cn1 [Histamine Phosphate] ) has relative cell viability equal to 101

Lookup result for CCCN[C@H]1CCc2nc(N)sc2C1 [Pramipexole dihydrochloride monohydrate] ; measured relative cell viability: 105
